TARGET SYSTEM: GDP-bound KRAS wild-type protein (Homo sapiens)
PROTOCOL: Binding to KRAS by surface plasmon resonance (SPR), dissociation constant KD
MEASUREMENT PARAMETERS: 1:1 binding model
pKd: −log10 of the molar value.
METRIC NAME: pKd

{"columns": ["MOLECULE", "TARGET SYSTEM", "METRIC NAME", "RESULT VALUE"],
 "data": [
  ["CCCOC[C@H]1C(=O)N[C@@H]([C@@H](C)CC)C(=O)N(C)CC(=O)N(C)[C@H]2C/C=C\\CCN(C2=O)[C@@H](Cc2ccc(C)cc2)C(=O)N(C)CC(=O)N[C@@H](CCc2ccc(C(F)(F)F)c(OC)c2)C(=O)N2C[C@H](OCC)C[C@H]2C(=O)NC2(CC(C)(C)C2)C(=O)N(C)[C@@H](C2CCCC2)C(=O)N(C)[C@H](C(=O)N(C)C)CC(=O)N1C [PP2449]", "GDP-bound KRAS wild-type protein (Homo sapiens)", "pKd", 10.21],
  ["CCCO[C@H](C)[C@@H]1NC(=O)[C@H](CC(C)C)N(C)C(=O)C[C@@H](C(=O)N(C)CC)N(C)C(=O)[C@H](C2CCCC2)N(C)C(=O)C2(CC(C)(C)C2)NC(=O)[C@@H]2C[C@H](C)CN2C(=O)[C@H](CCc2ccc(C(F)(F)F)c(OC)c2)NC(=O)CN(C)C(=O)[C@H](Cc2ccc(C)cc2)N2CC/C=C\\C[C@@H](C2=O)N(C)C(=O)CN(C)C1=O [PP2416]", "GDP-bound KRAS wild-type protein (Homo sapiens)", "pKd", 9.54],
  ["CC[C@H](C)[C@@H]1NC(=O)[C@H](COC)N(C)C(=O)C[C@@H](C(=O)N(C)CC)N(C)C(=O)[C@H](C2CCCC2)N(C)C(=O)C2(CC(C)(C)C2)NC(=O)[C@@H]2CC(F)(F)CN2C(=O)[C@H](CCc2ccc(C(F)(F)F)c(OC)c2)NC(=O)CN(C)C(=O)[C@H](Cc2ccc(C(F)(F)F)cc2)N2CC/C=C\\C[C@@H](C2=O)N(C)C(=O)[C@@H]2CCN2C1=O [PP3136]", "GDP-bound KRAS wild-type protein (Homo sapiens)", "pKd", 9.20]
]}

----------
TARGET SYSTEM: GDP-bound KRAS wild-type protein (Homo sapiens, UniProt P01116)
Sequence (P01116 1-188 isoform P01116-2): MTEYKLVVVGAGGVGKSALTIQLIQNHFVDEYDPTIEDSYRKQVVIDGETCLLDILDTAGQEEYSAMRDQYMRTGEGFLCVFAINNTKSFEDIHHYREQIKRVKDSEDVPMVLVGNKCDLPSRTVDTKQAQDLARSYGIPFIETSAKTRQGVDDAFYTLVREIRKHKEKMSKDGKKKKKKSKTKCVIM
PROTOCOL: Binding to KRAS by surface plasmon resonance (SPR), dissociation constant KD
MEASUREMENT PARAMETERS: Single Cycle Kinetics, 1:1 binding model

{"columns": ["COMPOUND STRING", "TARGET SYSTEM", "Kd (nM)"],
 "data": [
  ["CCCOC[C@H]1C(=O)N[C@@H]([C@@H](C)CC)C(=O)N(C)CC(=O)N(C)[C@H]2C/C=C\\CCN(C2=O)[C@@H](Cc2ccc(C)cc2)C(=O)N(C)CC(=O)N[C@@H](CCc2cc(F)c(C(F)(F)F)c(F)c2)C(=O)N2C[C@H](CCC)C[C@H]2C(=O)NC2(CC(C)(C)C2)C(=O)N(C)[C@@H](C2CCCC2)C(=O)N(C)[C@H](C(=O)N(C)C)CC(=O)N1C", "GDP-bound KRAS wild-type protein (Homo sapiens, UniProt P01116)", 0.34],
  ["CCO[C@@H]1C[C@H]2C(=O)NC3(CCC3)C(=O)N(C)[C@@H](C3CCCC3)C(=O)N(C)[C@H](C(=O)N3CCOCC3)CC(=O)N(C)[C@@H](Cc3ccccc3)C(=O)N[C@@H]([C@@H](C)CC)C(=O)N(C)CC(=O)N(C)[C@H]3CCCCCN(C3=O)[C@@H](Cc3ccc(C(F)(F)F)cc3)C(=O)N(C)CC(=O)N[C@@H](CCc3cc(F)c(C(F)(F)F)c(F)c3)C(=O)N2C1", "GDP-bound KRAS wild-type protein (Homo sapiens, UniProt P01116)", 0.64],
  ["CC[C@H](C)[C@@H]1NC(=O)[C@H](CC)N(C)C(=O)C[C@@H](C(=O)N(C)C)N(C)C(=O)[C@H](C2CCCC2)N(C)C(=O)C2(CCC2)NC(=O)[C@@H]2C[C@H](F)CN2C(=O)[C@H](CCc2cc(F)c(C(F)(F)F)c(F)c2)NC(=O)CN(C)C(=O)[C@H](Cc2ccc(C(F)(F)F)cc2)N2CC/C=C\\C[C@@H](C2=O)N(C)C(=O)CN(C)C1=O", "GDP-bound KRAS wild-type protein (Homo sapiens, UniProt P01116)", 0.066]
]}
